Catalogue of compounds with associated IC50
- system-tested: JAK3: Recombinant human kinase domain (Homo sapiens, UniProt P52333)
- Construct: JAK3: Recombinant human kinase domain from Millipore (Cat #14-629) or prepared
- Sequence (P52333 822-1111 limits assumed): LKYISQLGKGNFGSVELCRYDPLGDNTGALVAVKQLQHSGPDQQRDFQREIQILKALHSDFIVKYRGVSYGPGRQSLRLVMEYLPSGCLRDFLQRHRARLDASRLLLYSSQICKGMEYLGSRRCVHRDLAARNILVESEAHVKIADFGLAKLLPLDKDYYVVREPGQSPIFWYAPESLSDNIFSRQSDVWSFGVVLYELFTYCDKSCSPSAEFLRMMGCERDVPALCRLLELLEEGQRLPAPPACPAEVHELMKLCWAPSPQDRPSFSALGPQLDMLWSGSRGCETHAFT
- test-method-notes: Determination of IC50 of Janus Kinase (JAK) inhibition, radioactive end-point 33P-ATP assay, JAK3
- test-settings: ATP 1.5 uM, peptide 50 uM, 20 minutes, read-out: JAK3-INHIB-DR/v1~NO ADDITIVE~Enzyme_Conc = 100
test-readout: IC50 (nM)

> print(dat)
                                   compound  output.unit  measured
1  C[C@@H](NC(=O)c1c[nH]c2ncc(-c3nccc4ccccc34)nc12)C(=O)N1CC(C#N)C1           nM      53.8
2  CC(NC(=O)c1c[nH]c2ncc(-c3nn(C)c4cc(F)ccc34)nc12)[C@H]1C[C@@H](C#N)C1 (stereo partly shown)           nM      12.7
3  COC[C@H](C)NC(=O)c1c[nH]c2ncc(-c3nn(C4COC4)c4cc(F)ccc34)nc12           nM      0.26
4  C[C@H](NC(=O)c1c[nH]c2ncc(-c3nn(C)c4cc(Cl)cc(F)c34)nc12)C1CC1           nM      3.77
5  C[C@@H](NC(=O)c1c[nH]c2ncc(-c3nn(CCN(C)C)c4cc(Cl)ccc34)nc12)C(=O)N1CC(C#N)C1 [Example I-229]           nM      3.34
6  Cn1nc(-c2cnc3[nH]cc(C(=O)N[C@H]4CC[C@@H](O)C4)c3n2)c2ccc(F)cc21 (relative stereo)           nM      2.86
7  COC[C@H](C)NC(=O)c1c[nH]c2ncc(-c3nn(C)c4cc(Cl)cc(F)c34)nc12           nM      7.12

###

- system-tested: recombinant human SYK360-635 (Homo sapiens)
- Construct: made in house
- test-method-notes: Determination of IC50 of Spleen Tyrosine Kinase (SYK) inhibition, 33P ATP filtration assay
- Assay type: biochemical
- test-settings: SYK aa 360-635 0.5 nM; ATP 20 μM, peptide 5 μM, 0.1% BSA; read-out: SYK_ENZYME_FILTRATION/v1, BSA
The reader will find reported IC50 values listed item by item below.
test-readout: IC50 (µM)

> print(dat)
                                    molecule  test.readout  output.unit  measured
 1  COC[C@H](C)NC(=O)c1c[nH]c2ncc(-c3nn(C)c4ccc(C5CC5)cc34)nc12          IC50           µM    0.0119
 2  Cn1nc(-c2cnc3[nH]cc(C(=O)N[C@@H]4CCC[C@H](C#N)C4)c3n2)c2ccc(Cl)cc21 (relative stereo)          IC50           µM    0.0751
 3  Cn1nc(-c2cnc3[nH]cc(C(=O)NC(C)(C)C)c3n2)c2ccc(C(F)(F)F)cc21          IC50           µM    0.0335
 4  Cn1nc(-c2cnc3[nH]cc(C(=O)NC(C)(C)CO)c3n2)c2ccc(OC(F)(F)F)cc21          IC50           µM    0.0231
 5  C[C@@H](CO)NC(=O)c1c[nH]c2ncc(-c3n[nH]c4cc(Cl)ccc34)nc12          IC50           µM    0.0069
 6  CCc1ccc2c(-c3cnc4[nH]cc(C(=O)NC(C)(C)C)c4n3)nn(C)c2c1          IC50           µM   0.00478
 7  CC(C)(C)NC(=O)c1c[nH]c2ncc(-c3nn(C4CCNCC4)c4ccc(OC(F)F)cc34)nc12          IC50           µM   0.00183
 8  Cn1nc(-c2cnc3[nH]cc(C(=O)NC4(C)COC4)c3n2)c2ccc(F)cc21          IC50           µM     0.104
 9  Cc1cccc2c(-c3cnc4[nH]cc(C(=O)NC(C)(C)C)c4n3)n[nH]c12          IC50           µM     0.008
10  COC[C@H](C)NC(=O)c1c[nH]c2ncc(-n3cnc4ccc(Cl)cc43)nc12          IC50           µM     0.357
11  CC(CC1CC1)NC(=O)c1c[nH]c2ncc(-c3nn(C)c4cc(F)ccc34)nc12 (stereo not drawn)          IC50           µM     0.129
12  Cn1nc(-c2cnc3[nH]cc(C(=O)N[C@@H]4CCC[C@@H](O)C4)c3n2)c2ccc(Cl)cc21 (relative stereo)          IC50           µM    0.0193
13  Cc1ccc2c(-c3cnc4[nH]cc(C(=O)NC5(CO)CC5)c4n3)n[nH]c2c1          IC50           µM    0.0056
14  CC(C)(C)NC(=O)c1c[nH]c2ncc(-c3cccc4[nH]ncc34)nc12          IC50           µM   0.00473
15  CCn1nc(-c2cnc3[nH]cc(C(=O)N[C@H](C)C(=O)N4CC(C#N)C4)c3n2)c2ccc(Cl)cc21          IC50           µM    0.0334

###

The following compounds are listed with their measured IC50 values.
- system-tested: recombinant human SYK360-635 (Homo sapiens)
- Construct: made in house
- test-method-notes: Determination of IC50 of Spleen Tyrosine Kinase (SYK) inhibition, 33P ATP filtration assay
- Assay type: biochemical
- test-settings: SYK aa 360-635 0.5 nM; ATP 20 μM, peptide 5 μM, 0.1% BSA; read-out: SYK_ENZYME_FILTRATION/v1, BSA
test-readout: IC50 (nM)

> print(dat)
                                    compound                             system.tested  output.unit  measured
 1  CC(C)NC(=O)c1c[nH]c2ncc(-c3nn(Cc4ccon4)c4cc(Cl)ccc34)nc12 [Example I-310]  recombinant human SYK360-635 (Homo sapiens)           nM      35.3
 2  COC[C@H](C)NC(=O)c1c[nH]c2ncc(-c3nn(CCN(C)C)c4cc(Cl)ccc34)nc12 [Example I-234]  recombinant human SYK360-635 (Homo sapiens)           nM      95.1
 3  Cc1ccc2c(-c3cnc4[nH]cc(C(=O)NC(C)(C)CO)c4n3)nn(CCCN3CCOCC3)c2c1 [Example I-438]  recombinant human SYK360-635 (Homo sapiens)           nM      27.4
 4  CC(NC(=O)c1c[nH]c2ncc(-c3nn(C)c4cc(F)ccc34)nc12)C(O)C1CCOCC1 (single isomer, unassigned) [Example I-204]  recombinant human SYK360-635 (Homo sapiens)           nM       205
 5  Cn1nc(-c2cnc3[nH]cc(C(=O)N[C@H]4CC[C@@H](N)CC4)c3n2)c2cc(OC(F)F)ccc21 [Example I-402]  recombinant human SYK360-635 (Homo sapiens)           nM       101
 6  Cn1nc(-c2cnc3[nH]cc(C(=O)NC4(C)CCCC4)c3n2)c2ccc(F)cc21 [Example I-384]  recombinant human SYK360-635 (Homo sapiens)           nM      3.75
 7  Cn1nc(-c2cnc3[nH]cc(C(=O)N[C@H]4CC[C@H](N)CC4)c3n2)c2ccc(Cl)cc21 [Example I-146]  recombinant human SYK360-635 (Homo sapiens)           nM      8.65
 8  CC[C@H](C)NC(=O)c1c[nH]c2ncc(-c3nn(C)c4cc(F)ccc34)nc12 [Example I-178]  recombinant human SYK360-635 (Homo sapiens)           nM       4.6
 9  CCn1nc(-c2cnc3[nH]cc(C(=O)NC(C)C)c3n2)c2ccc(Cl)cc21 [Example I-307]  recombinant human SYK360-635 (Homo sapiens)           nM      32.6
10  CC(C)(C)NC(=O)c1c[nH]c2ncc(-c3nn(CCC4CNC4)c4cc(F)ccc34)nc12 [Example I-302]  recombinant human SYK360-635 (Homo sapiens)           nM       8.5
11  Cc1ccc2c(-c3cnc4[nH]cc(C(=O)NC(C)(C)CO)c4n3)nn(CCN3CCOCC3)c2c1 [Example I-445]  recombinant human SYK360-635 (Homo sapiens)           nM      24.7
12  Cn1nc(-c2cnc3[nH]cc(C(=O)N[C@H]4CC[C@H](O)C4)c3n2)c2ccc(F)cc21 (relative stereo) [Example I-47]  recombinant human SYK360-635 (Homo sapiens)           nM      21.9

Cited source for all entries: patent US8658646B2
